# measurementTarget: Ba/F3 EGFR Del19/T790M/C797S mutants (Homo sapiens, UniProt P00533, T790M/C797S, cells depend on it, form not given)
# Sequence (P00533 with tags, fused parts or gaps DEL746-750/T790M/C797S, form open): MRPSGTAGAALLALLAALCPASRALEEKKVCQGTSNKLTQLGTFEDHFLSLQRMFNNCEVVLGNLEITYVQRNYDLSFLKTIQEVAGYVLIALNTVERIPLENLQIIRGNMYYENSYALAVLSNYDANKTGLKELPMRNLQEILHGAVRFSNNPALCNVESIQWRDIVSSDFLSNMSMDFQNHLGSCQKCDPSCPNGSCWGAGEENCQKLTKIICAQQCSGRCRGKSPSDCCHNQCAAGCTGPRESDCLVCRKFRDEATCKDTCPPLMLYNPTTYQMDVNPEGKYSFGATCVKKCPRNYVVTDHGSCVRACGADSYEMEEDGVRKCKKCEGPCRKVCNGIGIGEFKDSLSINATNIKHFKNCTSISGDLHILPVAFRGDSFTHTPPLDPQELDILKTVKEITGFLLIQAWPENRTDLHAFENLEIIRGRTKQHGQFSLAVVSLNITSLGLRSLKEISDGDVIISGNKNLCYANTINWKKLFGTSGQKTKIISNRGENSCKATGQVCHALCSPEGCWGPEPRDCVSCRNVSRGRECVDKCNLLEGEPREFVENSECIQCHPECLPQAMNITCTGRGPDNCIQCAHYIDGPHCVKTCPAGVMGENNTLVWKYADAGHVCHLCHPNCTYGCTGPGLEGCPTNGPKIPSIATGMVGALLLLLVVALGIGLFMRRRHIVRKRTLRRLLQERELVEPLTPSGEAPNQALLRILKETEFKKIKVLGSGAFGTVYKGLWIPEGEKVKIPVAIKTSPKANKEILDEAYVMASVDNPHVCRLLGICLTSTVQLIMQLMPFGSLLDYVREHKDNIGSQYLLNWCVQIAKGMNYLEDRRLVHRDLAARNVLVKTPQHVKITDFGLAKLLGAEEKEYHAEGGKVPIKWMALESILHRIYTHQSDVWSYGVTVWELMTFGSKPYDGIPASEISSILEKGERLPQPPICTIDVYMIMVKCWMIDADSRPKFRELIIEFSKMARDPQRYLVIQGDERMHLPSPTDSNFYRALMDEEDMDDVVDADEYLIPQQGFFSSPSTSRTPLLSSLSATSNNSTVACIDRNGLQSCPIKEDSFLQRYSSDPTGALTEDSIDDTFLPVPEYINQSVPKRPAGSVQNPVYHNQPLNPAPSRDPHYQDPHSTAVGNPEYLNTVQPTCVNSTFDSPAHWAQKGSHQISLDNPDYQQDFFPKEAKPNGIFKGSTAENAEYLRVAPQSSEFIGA
# methodDescription: CellTiter-Glo cell viability, Ba/F3 EGFR Del19/T790M/C797S cells
# Type: cell-based, murine
# studyConditions: 72 hours, read-out: Ba/F3 EGFR mutant cell (IC50, nM) D/T/C
Kindly supply the reported GI50 values for the records listed here.
Give bare numbers, in nM.

# annotated cases, reported GI50 shown
CCCc1cc(Nc2ncc(Cl)c(Nc3ccc4c(c3NS(C)(=O)=O)OCCO4)n2)c(OC)cc1N1CCC(N(C)C)CC1 = 27
CCCc1cc(Nc2ncc(Cl)c(Nc3ccc(OC)cc3NS(C)(=O)=O)n2)c(OC)cc1N1CCC(N(C)C)CC1 = 9
CCCc1cc(Nc2ncc(Cl)c(Nc3ccc4nccnc4c3NS(C)(=O)=O)n2)c(OC)cc1N1CCC(N(C)C)CC1 = 104
COc1cc(C2CCN(C(C)=O)CC2)ccc1Nc1ncc(Cl)c(Nc2ccc3nccnc3c2NS(C)(=O)=O)n1 = 292
CCc1cc(Nc2ncc(Br)c(Nc3ccc4c(c3N(C)S(C)(=O)=O)OCCO4)n2)c(OC)cc1N1CCC(N2CCN(C)CC2)CC1 = 10

Provide each entry's GI50 from the list below.
1. COC(=O)Nc1c(Nc2nc(Nc3ccc(C4CCNCC4)cc3OC)ncc2Cl)ccc2nccnc12
2. COc1cc(C2CCNCC2)ccc1Nc1ncc(Cl)c(Nc2ccc3nccnc3c2NS(C)(=O)=O)n1
3. CCCc1cc(Nc2ncc(Cl)c(Nc3cccc(OC)c3NS(C)(=O)=O)n2)c(OC)cc1N1CCC(N(C)C)CC1

### Response
1. 870
2. 746
3. 7

* * *

# measurementTarget: Ba/F3 EGFR Del19/T790M/C797S mutants (Homo sapiens, UniProt P00533, T790M/C797S, cells depend on it, form not given)
# methodDescription: CellTiter-Glo cell viability, Ba/F3 EGFR Del19/T790M/C797S cells
# Assay type: cell-based, murine
# studyConditions: 72 hours, read-out: Ba/F3 EGFR mutant cell (IC50, nM) D/T/C
measuredParameter: log10(GI50) (log10 of the value in nM)
Give log10 of GI50, with GI50 taken in nM.

CCc1cc(Nc2ncc(Cl)c(Nc3ccc4nccnc4c3NS(C)(=O)=O)n2)c(OC)cc1N1CCC(N2CC3CCC2CN3C)CC1 (stereo not drawn) = 0.85

Hi team, please reply with log10(GI50) for each item in this list.
1. CCCc1cc(Nc2ncc(Cl)c(Nc3cccc(OC)c3N(C)S(C)(=O)=O)n2)c(OC)cc1N1CCC(N(C)C)CC1
2. CCc1cc(Nc2ncc(Br)c(Nc3ccc4nccnc4c3N(C)S(C)(=O)=O)n2)c(OC)cc1N1CCC(N2CCCCC2)CC1
3. CCc1cc(Nc2ncc(Br)c(N(C)c3ccc4nccnc4c3N(C)S(C)(=O)=O)n2)c(OC)cc1N1CCC(N(C)C)CC1
4. COc1cc(N2CCN([C@@H]3CCN(C)C[C@@H]3F)CC2)ccc1Nc1ncc(Cl)c(Nc2ccc3nccnc3c2NS(C)(=O)=O)n1

### Response
1. 1.30
2. 1.00
3. 1.40
4. 2.38

For each of the compounds below, state log10(GI50).
1. COc1cc(N2CCC(N3CCN(C)C4(CC4)C3)CC2)ccc1Nc1ncc(Cl)c(Nc2ccc3nccnc3c2NS(C)(=O)=O)n1
2. CCc1cc(Nc2ncc(Cl)c(Nc3ccc4nccnc4c3NS(C)(=O)=O)n2)c(OC)cc1N1CCC(N2CCCC2)CC1
3. COc1ccc(Nc2nc(Nc3cc(C)c(N4CCC(N(C)C)CC4)cc3OC)ncc2Cl)c(NS(C)(=O)=O)c1
4. COc1cc(N2CCC(N3CCN(C)CC3)CC2)c(C)cc1Nc1ncc(C)c(Nc2ccc3nccnc3c2NS(C)(=O)=O)n1
5. CCS(=O)(=O)Nc1c(Nc2nc(Nc3cc(C)c(N4CCC(N5CCN(C)CC5)CC4)cc3OC)ncc2Br)ccc2nccnc12
6. CCc1cc(Nc2ncc(Br)c(Nc3ccc4nccnc4c3NS(C)(=O)=O)n2)c(OC)cc1N1CCC(N2CCN(C)CC2)CC1

### Response
2.32
0.60
2.12
1.76
1.87
0.78

Could you tell me log10(GI50) for each of these compounds? They are listed below.
1. CCc1cc(Nc2ncc(Cl)c(Nc3ccc4nccnc4c3NS(C)(=O)=O)n2)c(OC)cc1N1CCC(N(C)C)CC1
2. CCS(=O)(=O)Nc1c(Nc2nc(Nc3cc(C)c(N4CCC(N5CCN(C)CC5)CC4)cc3OC)ncc2Cl)ccc2nccnc12
3. CCc1cc(Nc2ncc(Br)c(Nc3ccc4nccnc4c3N(C)S(C)(=O)=O)n2)c(OC)cc1N1CCC(N(C)C)CC1
4. CCc1cc(Nc2ncc(Br)c(Nc3cccc(OC)c3N(C)S(C)(=O)=O)n2)c(OC)cc1N1CCC(N2CCN(C)CC2)CC1 [Example C7]
5. CCCc1cc(Nc2ncc(Br)c(Nc3ccc4nccnc4c3NS(C)(=O)=O)n2)c(OC)cc1N1CCC(N(C)C)CC1
6. CCc1cc(Nc2ncc(Cl)c(Nc3ccc4nccnc4c3N(C)S(C)(=O)=O)n2)c(OC)cc1N1CCC(N2CCOCC2)CC1

### Response
1: 1.15; 2: 2.13; 3: 0.90; 4: 1.00; 5: 1.78; 6: 1.08

Give log10(GI50) for each of the items listed below.
1. COc1cc(N2CCC(N(C)C)CC2)c(C)cc1Nc1ncc(Br)c(Nc2cccc(OC)c2N(C)S(C)(=O)=O)n1
2. COc1cc(N2CCC(N3CCCC3)CC2)c(C)cc1Nc1ncc(Br)c(Nc2cccc(OC)c2NS(C)(=O)=O)n1
3. COc1cc(N2CCC(N3CCN(C)CC3)CC2)c(C)cc1Nc1ncc(Cl)c(Nc2cccc(OC)c2NS(C)(=O)=O)n1
4. CCc1cc(Nc2ncc(Br)c(Nc3cccc(OC)c3N(C)S(C)(=O)=O)n2)c(OC)cc1N1CCC(N2CCN(C)CC2)CC1 [Example C29]
5. COc1cc(N2CCC(N3CCCC3)CC2)c(C)cc1Nc1ncc(Cl)c(Nc2ccc3nccnc3c2NS(C)(=O)=O)n1
6. CCc1cc(Nc2ncc(Br)c(Nc3ccc4nccnc4c3N(C)S(C)(=O)=O)n2)c(OC)cc1N1CCC(N2CCOCC2)CC1
7. COc1cc(N2CCC(N3CCN(C)CC3)CC2)ccc1Nc1ncc(Cl)c(Nc2ccc3c(c2NS(C)(=O)=O)OCCO3)n1
8. CCc1cc(Nc2ncc(Br)c(Nc3ccc4nccnc4c3N(C)S(C)(=O)=O)n2)c(OC)cc1N1CCC(N2CC3CCC2CN3C)CC1 (stereo not drawn)

### Response
[1.53, 0.78, 0.85, 0.70, 2.00, 0.90, 2.41, 1.23]

For each entry beneath this line, provide reported log10(GI50).
1. COc1cc(N2CCC(N(C)C)CC2)c(C)cc1Nc1ncc(Cl)c(Nc2ccc3nccnc3c2NS(C)(=O)=O)n1
2. COc1cc(N2CCC(N(C)C)CC2)c(C)cc1Nc1ncc(Br)c(Nc2ccc3nccnc3c2N(C)S(C)(=O)=O)n1

### Response
0.60
0.90

* * *

# measurementTarget: Ba/F3 EGFR L858R/T790M/C797S mutants (Homo sapiens, UniProt P00533, T790M/C797S/L858R, cells depend on it)
# Sequence (P00533 whole entry T790M/C797S/L858R): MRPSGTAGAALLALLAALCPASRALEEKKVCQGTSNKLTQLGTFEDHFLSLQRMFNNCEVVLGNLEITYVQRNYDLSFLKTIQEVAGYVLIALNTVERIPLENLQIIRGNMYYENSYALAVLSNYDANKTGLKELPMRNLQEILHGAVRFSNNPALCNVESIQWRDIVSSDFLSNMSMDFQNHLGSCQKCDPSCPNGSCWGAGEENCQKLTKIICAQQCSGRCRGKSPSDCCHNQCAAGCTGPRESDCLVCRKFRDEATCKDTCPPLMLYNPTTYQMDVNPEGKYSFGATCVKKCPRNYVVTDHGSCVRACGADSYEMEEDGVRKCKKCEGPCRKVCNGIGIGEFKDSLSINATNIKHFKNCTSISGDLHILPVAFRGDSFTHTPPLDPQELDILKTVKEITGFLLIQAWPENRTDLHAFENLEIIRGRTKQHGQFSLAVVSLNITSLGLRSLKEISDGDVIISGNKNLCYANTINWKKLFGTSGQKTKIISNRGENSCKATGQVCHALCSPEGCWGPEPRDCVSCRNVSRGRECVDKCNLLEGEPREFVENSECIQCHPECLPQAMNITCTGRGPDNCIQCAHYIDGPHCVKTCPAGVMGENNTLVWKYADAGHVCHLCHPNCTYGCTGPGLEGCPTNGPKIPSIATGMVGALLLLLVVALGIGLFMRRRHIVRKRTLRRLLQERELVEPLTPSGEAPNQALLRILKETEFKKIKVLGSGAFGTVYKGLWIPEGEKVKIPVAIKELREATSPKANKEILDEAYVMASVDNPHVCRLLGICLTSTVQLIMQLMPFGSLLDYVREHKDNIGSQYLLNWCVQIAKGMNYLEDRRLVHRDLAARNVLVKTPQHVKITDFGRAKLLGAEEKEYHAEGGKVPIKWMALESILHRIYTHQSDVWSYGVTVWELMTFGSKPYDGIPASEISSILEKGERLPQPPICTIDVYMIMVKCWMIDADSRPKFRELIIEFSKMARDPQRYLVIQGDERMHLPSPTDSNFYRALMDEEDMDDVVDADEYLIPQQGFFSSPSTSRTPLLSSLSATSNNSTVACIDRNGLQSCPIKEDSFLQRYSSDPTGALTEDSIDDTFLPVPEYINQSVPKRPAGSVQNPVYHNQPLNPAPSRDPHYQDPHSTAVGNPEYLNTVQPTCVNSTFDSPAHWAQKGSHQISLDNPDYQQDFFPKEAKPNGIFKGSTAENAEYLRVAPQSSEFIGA
# methodDescription: CellTiter-Glo cell viability, Ba/F3 EGFR L858R/T790M/C797S cells
# Format: cell-based, murine
# studyConditions: 72 hours, read-out: Ba/F3 EGFR mutant cell (IC50, nM) L/T/C
# Protocol: In order to evaluate an inhibitory ability on wild-type Ba/F3 EGFR and Ba/F3 EGFR mutations in Ba/F3 cell lines by the compounds of Formula 1, the experiment was carried out as described below. The measurement of activities on Ba/F3 cells harboring wild-type EGFR and EGFR mutants by the compounds of the present invention were determined utilizing the CELLTITER-GLO™ system from Promega, as follows. […]
Answer each item with its documented GI50.
Give bare numbers, in nM.

Recorded results for 6 compounds are shown here.
COc1cc(C2CCNCC2)c(C)cc1Nc1ncc(Br)c(Nc2ccc3nccnc3c2NS(C)(=O)=O)n1 [Example B11] = 264
COc1cc(N2CCNCC2)ccc1Nc1ncc(Cl)c(Nc2cccc(OC)c2NS(C)(=O)=O)n1 [Example C6] = 596
CCCc1cc(Nc2ncc(Cl)c(Nc3ccc(OC)cc3NS(C)(=O)=O)n2)c(OC)cc1N1CCC(N(C)C)CC1 [Example C12] = 29
COc1cc(N2CCOCC2)c(C)cc1Nc1ncc(Br)c(Nc2ccc3nccnc3c2S(C)(=O)=O)n1 [Example D1] = 536
CCc1cc(Nc2ncc(Cl)c(Nc3ccc4nccnc4c3NS(C)(=O)=O)n2)c(OC)cc1N1CCC(N2CCN(C)CC2)CC1 [Example A2] = 9
CCc1cc(Nc2ncc(Br)c(Nc3ccc4nccnc4c3N(C)S(C)(=O)=O)n2)c(OC)cc1N1CCC(N2CCCCC2)CC1 [Example A44] = 38

# return GI50 for each item in the list
1. CCc1cc(Nc2ncc(Br)c(N(C)c3ccc4nccnc4c3N(C)S(C)(=O)=O)n2)c(OC)cc1N1CCC(N(C)C)CC1 [Example B19]
2. CCS(=O)(=O)Nc1c(Nc2nc(Nc3cc(C)c(N4CCC(N5CCN(C)CC5)CC4)cc3OC)ncc2Br)ccc2nccnc12 [Example A24]
3. CCc1cc(Nc2ncc(Br)c(Nc3ccc4nccnc4c3NS(C)(=O)=O)n2)c(OC)cc1N1CCC(N(C)C)CC1 [Example B2]
4. COc1cc(C2CCNCC2)ccc1Nc1ncc(Cl)c(Nc2ccc3nccnc3c2NS(C)(=O)=O)n1 [Example B15]
5. CCc1cc(Nc2ncc(Br)c(Nc3cccc(OC)c3N(C)S(C)(=O)=O)n2)c(OC)cc1N1CCC(N2CCN(C)CC2)CC1 [Example C29]
6. CCCc1cc(Nc2ncc(Cl)c(Nc3cccc(OC)c3NS(C)(=O)=O)n2)c(OC)cc1N1CCC(N2CCOCC2)CC1 [Example C23]

### Response
82
13
13
2140
21
137

Note to self: GI50 recorded for COc1cc(N2CCC(N(C)C)CC2)ccc1Nc1ncc(Br)c(Nc2ccc3nccnc3c2NS(C)(=O)=O)n1 [Example B3] was 86
